// data source = ChEMBL document CHEMBL1687687

- system: Signal transducer and activator of transcription 3 (Homo sapiens, UniProt P40763)
- Sequence (P40763 whole entry): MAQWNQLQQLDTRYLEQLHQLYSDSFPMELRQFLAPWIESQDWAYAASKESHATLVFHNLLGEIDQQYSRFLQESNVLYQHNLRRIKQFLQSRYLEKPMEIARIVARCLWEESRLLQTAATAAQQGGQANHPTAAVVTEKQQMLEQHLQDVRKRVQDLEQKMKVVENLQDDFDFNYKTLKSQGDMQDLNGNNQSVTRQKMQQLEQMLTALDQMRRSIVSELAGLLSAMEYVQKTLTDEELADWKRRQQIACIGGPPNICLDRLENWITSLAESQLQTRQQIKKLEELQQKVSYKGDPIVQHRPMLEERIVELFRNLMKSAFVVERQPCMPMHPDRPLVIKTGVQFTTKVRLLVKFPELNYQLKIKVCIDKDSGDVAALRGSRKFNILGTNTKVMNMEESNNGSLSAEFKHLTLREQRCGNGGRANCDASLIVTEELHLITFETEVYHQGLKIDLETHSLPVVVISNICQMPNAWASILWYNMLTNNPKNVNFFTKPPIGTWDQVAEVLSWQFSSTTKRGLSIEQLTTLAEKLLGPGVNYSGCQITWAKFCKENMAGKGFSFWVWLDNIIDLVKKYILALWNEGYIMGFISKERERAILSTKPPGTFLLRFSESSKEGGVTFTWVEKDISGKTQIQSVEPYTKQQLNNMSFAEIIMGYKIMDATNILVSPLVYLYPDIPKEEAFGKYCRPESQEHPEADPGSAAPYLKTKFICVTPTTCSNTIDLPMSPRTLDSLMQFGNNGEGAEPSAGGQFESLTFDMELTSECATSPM
- protocol-summary: Inhibition of STAT3 dimerization transfected in HEK293 cells at 100 uM after 24 hrs followed by 1 hr stimulation with 50 ng/ml IL-6 by FRET assay
- Type: cell-based
- condition-info: 10 uM, in the assay text read “at 10 uM” for “at 100 uM”
observation-type: inhibition (%)

Solved entries:
>>> numeric_value("O=C(Nc1nnc(-c2ccco2)o1)c1ccnc2ccccc12")
-2
>>> numeric_value("O=C(Nc1nnc(-c2ccco2)o1)c1cc(-c2cccc3ccccc23)nc2ccccc12")
14
>>> numeric_value("O=C(Nc1nnc(-c2ccco2)o1)c1cc(-c2cccs2)nc2ccccc12")
18

A. O=C(Nc1nnc(-c2cccs2)o1)c1cc(-c2ccccc2)nc2ccccc12
B. O=C(Nc1nnc(Cc2ccccc2)o1)c1cc(-c2ccccc2)nc2ccccc12
# input Form: Entry with minimum inhibition (choose one): A / B // output: label of the selected item
# output B

1. O=C(Nc1nnc(-c2ccoc2)o1)c1cc(-c2ccccc2)nc2ccccc12
2. O=C(Nc1nnc(-c2ccccc2)o1)c1cc(-c2ccccc2)nc2ccccc12
# input Form: Entry with minimum inhibition (choose one): 1 / 2 // output: label of the selected item
# output 1

====

- system: Signal transducer and activator of transcription 3 (Homo sapiens)
- protocol-summary: Inhibition of STAT3 transcriptional activity in human HeLa cells at 100 uM by luciferase reporter gene assay
- Format: cell-based
observation-type: inhibition (%)

Solved entries:
>>> numeric_value("O=C(Nc1nnc(-c2ccco2)o1)c1cc(-c2cccs2)nc2ccccc12")
91
>>> numeric_value("O=C(Nc1nnc(-c2ccco2)o1)c1cc(-c2ccco2)nc2ccccc12")
129
>>> numeric_value("O=C(Nc1nnc(-c2cccs2)o1)c1cc(-c2ccccc2)nc2ccccc12")
86
>>> numeric_value("O=C(Nc1nnc(-c2ccco2)o1)c1cc(N2CCCCC2)nc2ccccc12")
-7
>>> numeric_value("O=C(Nc1nnc(-c2ccc(Cl)cc2)o1)c1cc(-c2ccccc2)nc2ccccc12")
115

1. O=C(Nc1nnc(-c2ccoc2)o1)c1cc(-c2ccccc2)nc2ccccc12
2. CCOC(=O)c1nnc(NC(=O)c2cc(-c3ccccc3)nc3ccccc23)o1
3. O=C(Nc1nnc(-c2ccco2)o1)c1cc(-c2cccnc2)nc2ccccc12
# input Order the records by inhibition, with each subsequent value no larger than the one before. Returns: the labels arranged in the requested order.
# output 1, 2, 3
(1: 103%, 2: 38%, 3: 12%)

====

- system: Signal transducer and activator of transcription 3 (Homo sapiens)
- protocol-summary: Inhibition of STAT3 dimerization transfected in HEK293 cells at 50 uM after 24 hrs followed by 1 hr stimulation with 50 ng/ml IL-6 by FRET assay
- Format: cell-based
observation-type: inhibition (%)

>>> numeric_value("O=C(Nc1nnc(-c2ccoc2)o1)c1cc(-c2ccccc2)nc2ccccc12")
55
>>> numeric_value("O=C(Nc1nnc(Cc2ccccc2)o1)c1cc(-c2ccccc2)nc2ccccc12")
61
>>> numeric_value("O=C(Nc1nnc(-c2ccco2)o1)c1cc(-c2ccccc2)nc2ccccc12")
62

A. O=C(Nc1nnc(-c2ccco2)o1)c1cc(-c2cccs2)nc2ccccc12
B. O=C(Nc1nnc(-c2ccco2)o1)c1ccnc2ccccc12
# input Form: Entry with minimum inhibition (choose one): A / B // output: label of the selected item
# output B
(B: -4%, A: 56%)

====

- system: Signal transducer and activator of transcription 3 (Homo sapiens)
- protocol-summary: Inhibition of STAT3 transcriptional activity in human HeLa cells at 100 uM by luciferase reporter gene assay
- Assay type: cell-based
observation-type: inhibition (%)

Solved entries:
>>> numeric_value("CCc1nnc(NC(=O)c2cc(-c3ccccc3)nc3ccccc23)o1")
33
>>> numeric_value("O=C(Nc1nnc(-c2ccco2)o1)c1cc(-c2cccc3ccccc23)nc2ccccc12")
121
>>> numeric_value("Cc1nnc(NC(=O)c2cc(-c3ccccc3)nc3ccccc23)o1")
14
>>> numeric_value("O=C(Nc1nnc(-c2ccccc2Cl)o1)c1cc(-c2ccccc2)nc2ccccc12")
5

1. O=C(Nc1nnc(-c2ccco2)o1)c1cc(Cl)nc2ccccc12
2. O=C(Nc1nnc(-c2ccco2)s1)c1cc(-c2ccccc2)nc2ccccc12
3. O=C(Nc1nnc(-c2ccco2)o1)c1cc(-c2ccccn2)nc2ccccc12
# input Order the records by inhibition, with each subsequent value no larger than the one before. Returns: the labels arranged in the requested order.
# output 1, 2, 3
(1: 43%, 2: 26%, 3: 5%)

====

- system: Signal transducer and activator of transcription 3 (Homo sapiens, UniProt P40763)
- protocol-summary: Inhibition of STAT3 dimerization transfected in HEK293 cells at 50 uM after 24 hrs followed by 1 hr stimulation with 50 ng/ml IL-6 by FRET assay
- Format: cell-based
observation-type: inhibition (%)

>>> numeric_value("O=C(Nc1nnc(-c2ccco2)o1)c1cc(-c2cccc3ccccc23)nc2ccccc12")
70
>>> numeric_value("O=C(Nc1nnc(-c2ccccc2)o1)c1cc(-c2ccccc2)nc2ccccc12")
60
>>> numeric_value("O=C(Nc1nnc(-c2cccs2)o1)c1cc(-c2ccccc2)nc2ccccc12")
56

====

- system: Signal transducer and activator of transcription 3 (Homo sapiens, UniProt P40763)
- protocol-summary: Inhibition of STAT3 transcriptional activity in human HeLa cells by luciferase reporter gene assay
pIC50: −log10 of the molar value.
observation-type: pIC50

>>> numeric_value("O=C(Nc1nnc(-c2ccco2)o1)c1cc(-c2cccs2)nc2ccccc12")
4.20
>>> numeric_value("O=C(Nc1nnc(-c2ccoc2)o1)c1cc(-c2ccccc2)nc2ccccc12")
4.14
>>> numeric_value("O=C(Nc1nnc(-c2ccco2)o1)c1cc(-c2ccco2)nc2ccccc12")
4.18
>>> numeric_value("O=C(Nc1nnc(-c2ccc(Cl)cc2)o1)c1cc(-c2ccccc2)nc2ccccc12")
4.21
>>> numeric_value("O=C(Nc1nnc(-c2ccccc2)o1)c1cc(-c2ccccc2)nc2ccccc12")
4.18
>>> numeric_value("O=C(Nc1nnc(-c2ccco2)o1)c1cc(-c2ccccc2)nc2ccccc12")
4.13
>>> numeric_value("O=C(Nc1nnc(-c2cccs2)o1)c1cc(-c2ccccc2)nc2ccccc12")
4.12
>>> numeric_value("O=C(Nc1nnc(Cc2ccccc2)o1)c1cc(-c2ccccc2)nc2ccccc12")
4.12
>>> numeric_value("O=C(Nc1nnc(-c2ccco2)o1)c1cc(-c2cccc3ccccc23)nc2ccccc12")
4.26

====

- system: UniProt:P40763
- protocol-summary: Inhibition of STAT3 transcriptional activity in human HeLa cells at 100 uM by luciferase reporter gene assay
- Assay type: cell-based
observation-type: inhibition (%)

>>> numeric_value("O=C(Nc1nnc(-c2ccco2)o1)c1cc(-c2ccccc2)nc2ccccc12")
99

I. O=C(Nc1nnc(-c2ccccc2)o1)c1cc(-c2ccccc2)nc2ccccc12
II. O=C(Nc1nnc(-c2ccco2)o1)c1ccnc2ccccc12
# input Form: Entry with minimum inhibition (choose one): I / II // output: label of the selected item
# output II
(II: -5%, I: 105%)
